Reference source: patent US20230272056A1

Target: T1, human LAP-TGFB1 Fc fusion (human)
T1 construct: also called human LAP-TGFβ1-Fc; human LAP-TGFβ-Fc isoform 1
T1 sequence (chain, as listed by the source limits assumed): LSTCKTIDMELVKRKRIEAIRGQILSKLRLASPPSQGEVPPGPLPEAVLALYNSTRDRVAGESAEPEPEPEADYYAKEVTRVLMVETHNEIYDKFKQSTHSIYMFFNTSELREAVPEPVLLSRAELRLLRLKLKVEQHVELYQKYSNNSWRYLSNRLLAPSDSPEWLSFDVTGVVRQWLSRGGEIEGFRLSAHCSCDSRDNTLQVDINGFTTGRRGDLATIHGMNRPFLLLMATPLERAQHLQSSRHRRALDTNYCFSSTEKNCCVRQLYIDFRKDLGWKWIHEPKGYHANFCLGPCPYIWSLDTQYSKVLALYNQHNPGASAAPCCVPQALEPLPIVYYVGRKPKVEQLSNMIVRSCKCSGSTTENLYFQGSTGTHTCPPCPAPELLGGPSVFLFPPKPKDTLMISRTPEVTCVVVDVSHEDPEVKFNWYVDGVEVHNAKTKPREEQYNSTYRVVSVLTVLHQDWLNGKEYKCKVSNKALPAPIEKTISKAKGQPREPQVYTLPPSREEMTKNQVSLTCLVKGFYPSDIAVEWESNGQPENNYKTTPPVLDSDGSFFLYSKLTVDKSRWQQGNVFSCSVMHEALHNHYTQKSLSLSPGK
Test: SPR pH 7.4, antigen-Fc captured, Fab analyte
Assay metric: koff (s⁻¹)
Numbers only; they are read as s⁻¹.

Use the examples below as a reference point.
- Binder: "56BLH (Fab, V domains shown, also called 08BLM Fab) VH: EVQLVQSGAEVKKPGASVKVSCKASGYTFTSYDMHWVRQAPGQGLEWMGRIDPQSGGTKYAQKFQGRATLTVDTSTSTAYMELSRLRSDDTAVYYCARWDYGGQFDVWGQGTLVTVSS VL: DIQMTQSPSSLSASVGDRVTITCRASQDIYNYLNWYQQKPGKAVKLLIYYTSGLETGVPSRFSGSGSGTDYTLTISSLQPEDFATYFCQQGDTLPWTFGQGTKLEIK"
  koff (s⁻¹): "2.57e-05"
- Binder: "68BLH (Fab, V domains shown, also called 20BLM Fab) VH: EVQLVQSGAEVKKPGASVKVSCKASGYTFTSYDMHWVRQAPGQGLEWMGRIDPQSGGEKYAQKFQGRATLTVDTSTSTAYMELSRLRSDDTAVYYCARYDYGGYFDVWGQGTLVTVSS VL: DIQMTQSPSSLSASVGDRVTITCRASQDIYNYLNWYQQKPGKAVKLLIYYTSRLETGVPSRFSGSGSGTDYTLTISSLQPEDFATYFCQQGDTLPWTFGQGTKLEIK"
  koff (s⁻¹): 0.00331

// moving on: another record for koff
get_value(item= 54BLH (Fab, V domains shown, also called 06BLM Fab) VH: EVQLVQSGAEVKKPGASVKVSCKASGYTFTSYDMHWVRQAPGQGLEWMGRIDPQSGGIRYAQKFQGRATLTVDTSTSTAYMELSRLRSDDTAVYYCARWDYGGQFDVWGQGTLVTVSS VL: DIQMTQSPSSLSASVGDRVTITCRASQDIYNYLNWYQQKPGKAVKLLIYYTSILETGVPSRFSGSGSGTDYTLTISSLQPEDFATYFCQQGDTLPWTFGQGTKLEIK , readout=koff) returns 2.07e-05
